READOUT LABEL: Ki (nM)
Dear colleague, please return just the value in nM, with no unit written.

Report value: Ki, system: Adenosine receptor A2b (Homo sapiens, UniProt P29275), molecule: `CCCn1c(=O)c2[nH]c(-c3ccc(OCC(=O)Nc4cccc(F)c4)cc3)c(Cl)c2n(CCC)c1=O`
60.3

Report value: Ki, system: Adenosine receptor A2b (Homo sapiens, UniProt P29275), molecule: `CCCn1c(=O)c2[nH]c(-c3ccc(OCC(=O)O)cc3)cc2n(CCC)c1=O`
15.8

Report value: Ki, system: Adenosine receptor A2b (Homo sapiens, UniProt P29275), molecule: `CCCn1c(=O)c2[nH]c(-c3ccc(OCC(=O)Nc4ccc(CS(=O)(=O)N5CCCC5)cc4)cc3)cc2n(CCC)c1=O`
7.76

Report value: Ki, system: Adenosine receptor A2b (Homo sapiens, UniProt P29275), molecule: `CCCn1c(=O)c2[nH]c(-c3ccc(OCC(=O)Nc4ccc(C5=NC(C)(C)CO5)cc4)cc3)cc2n(CCC)c1=O`
34.7

Report value: Ki, system: Adenosine receptor A2b (Homo sapiens, UniProt P29275), molecule: `CCCn1c(=O)c2[nH]c(-c3ccc(OCC(=O)Nc4ccc(CC#N)cc4)cc3)cc2n(CCC)c1=O`
11.2

Report value: Ki, system: Adenosine receptor A2b (Homo sapiens, UniProt P29275), molecule: `CCCn1c(=O)c2[nH]c(-c3ccc(OCC(=O)Nc4ccc(S(=O)(=O)c5ccccc5)cc4)cc3)cc2n(CCC)c1=O`
17.4

Report value: Ki, system: Adenosine receptor A2b (Homo sapiens, UniProt P29275), molecule: `CCCn1c(=O)c2[nH]c(-c3ccc(OCC(=O)Nc4ccc(OC)cc4)cc3)c(Cl)c2n(CCC)c1=O`
27.5

###

Parameter 'readout' = Ki; parameter 'system' = Adenosine receptor A2b (Homo sapiens).
Dear colleague, please return just the value in nM, with no unit written.

Supply reported Ki belonging to this molecule: `CCCn1c(=O)c2[nH]c(-c3ccc(OCC(=O)Nc4ccc(Cl)cc4)cc3)c(Cl)c2n(CCC)c1=O`
22.9

Supply reported Ki belonging to this molecule: Cn1c(=O)c2[nH]c(-c3ccc(OCC(=O)NC4CCc5ccccc54)cc3)cc2n(C)c1=O (stereo not drawn)
22.4

Supply reported Ki belonging to this molecule: `CCCn1c(=O)c2[nH]c(-c3ccc(OCC(=O)Nc4ccc(OC(F)(F)F)cc4)cc3)cc2n(CCC)c1=O`
6.92

Supply reported Ki belonging to this molecule: `CCCn1c(=O)c2[nH]c(-c3ccc(OCC(=O)Nc4ccc(NC(C)=O)cc4)cc3)cc2n(CCC)c1=O`
13.8

Supply reported Ki belonging to this molecule: `CC(=O)c1ccc(NC(=O)COc2ccc(-c3cc4c([nH]3)c(=O)n(C)c(=O)n4C)cc2)cc1`
3.55

Supply reported Ki belonging to this molecule: `COc1cc(OCC(=O)O)ccc1-c1cc2c([nH]1)c(=O)n(C)c(=O)n2C`
1550

Supply reported Ki belonging to this molecule: `CCCn1c(=O)c2[nH]c(-c3ccc(OCC(=O)Nc4ccc(C(C)(C)C)cc4)cc3)cc2n(CCC)c1=O`
7.94

Supply reported Ki belonging to this molecule: `CCCn1c(=O)c2[nH]c(-c3ccc(OCC(=O)Nc4ccc(S(N)(=O)=O)cc4)cc3)cc2n(CCC)c1=O`
200

###

Target: Adenosine receptor A2b (Homo sapiens) (UniProt P29275)
Sequence (whole entry): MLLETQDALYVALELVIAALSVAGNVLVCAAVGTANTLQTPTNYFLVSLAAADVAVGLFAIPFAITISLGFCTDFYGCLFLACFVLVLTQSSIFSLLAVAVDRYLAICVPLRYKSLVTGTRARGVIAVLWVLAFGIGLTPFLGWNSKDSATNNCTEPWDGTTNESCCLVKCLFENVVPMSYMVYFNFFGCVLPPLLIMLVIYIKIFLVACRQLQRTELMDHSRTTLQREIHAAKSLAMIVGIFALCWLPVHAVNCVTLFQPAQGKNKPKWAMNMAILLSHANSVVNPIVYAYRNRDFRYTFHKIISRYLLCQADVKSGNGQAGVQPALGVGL
Assay: Displacement of [3H]DPCPX from recombinant human adenosine A2B receptor expressed in HEK293 cells at 0.1 uM
Assay type: cell-based
Kindly state inhibition for each of the entries shown.
Dear colleague, please return just the value in %, with no unit written.

Supply reported inhibition belonging to this molecule: `CCCn1c(=O)c2[nH]c(-c3ccc(OCC(=O)Nc4ccc(OC)nc4)cc3)cc2n(CCC)c1=O`
84

Supply reported inhibition belonging to this molecule: `COCCCn1c(=O)n(C)c(=O)c2[nH]c(-c3ccc(OCC(=O)O)cc3)cc21`
35

Supply reported inhibition belonging to this molecule: CCCn1c(=O)c2[nH]c(-c3ccc(OCC(=O)NC(CCl)c4ccccc4)cc3)cc2n(CCC)c1=O (stereo not drawn)
74

Supply reported inhibition belonging to this molecule: `O=C(COc1ccc(-c2cc3c([nH]2)c(=O)n(CC(F)(F)F)c(=O)n3CC(F)(F)F)cc1)Nc1ccc(Br)cc1`
79

Supply reported inhibition belonging to this molecule: `CCCn1c(=O)c2[nH]c(-c3ccc(OCC(=O)Nc4ccc(I)cc4)cc3)cc2n(C)c1=O`
97

Supply reported inhibition belonging to this molecule: `COCCCn1c(=O)n(C)c(=O)c2[nH]c(-c3ccc(OCC(=O)Nc4ccccc4)cc3)cc21`
80

Supply reported inhibition belonging to this molecule: `CCCn1c(=O)c2[nH]c(-c3ccc(OCC(=O)Nc4ccc(OC(F)(F)F)cc4)cc3)cc2n(CCC)c1=O`
91

Supply reported inhibition belonging to this molecule: `Cn1c(=O)c2[nH]c(-c3ccc(OC(C)(C)C(=O)O)cc3)cc2n(C)c1=O`
14

###

READOUT LABEL: pKi
A value of pKi is the negative decimal logarithm of a concentration given in moles per litre.

Report value: pKi, system: Adenosine receptor A1 (Homo sapiens, UniProt P30542), molecule: `CCCn1c(=O)c2[nH]c(-c3ccc(OCC(=O)NCc4ccccc4)cc3)nc2n(CCC)c1=O`
Sequence (P30542 whole entry): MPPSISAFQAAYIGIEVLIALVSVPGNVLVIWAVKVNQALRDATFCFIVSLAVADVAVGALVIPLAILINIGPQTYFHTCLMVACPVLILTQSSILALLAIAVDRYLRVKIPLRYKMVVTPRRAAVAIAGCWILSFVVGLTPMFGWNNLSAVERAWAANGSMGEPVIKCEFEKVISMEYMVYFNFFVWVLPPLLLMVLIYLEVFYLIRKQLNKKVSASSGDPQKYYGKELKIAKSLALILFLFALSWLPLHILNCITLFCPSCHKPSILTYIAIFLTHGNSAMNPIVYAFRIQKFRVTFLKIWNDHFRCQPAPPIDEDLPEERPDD
7.20

Report value: pKi, system: Adenosine receptor A1 (Homo sapiens, UniProt P30542), molecule: `Cn1c(=O)c2[nH]c(-c3ccc(OCC(=O)Nc4ccc(C#N)cc4)cc3)cc2n(C)c1=O`
8.37

Report value: pKi, system: Adenosine receptor A1 (Homo sapiens, UniProt P30542), molecule: `CCCn1c(=O)c2[nH]c(-c3ccc(OCC(=O)Nc4ccc(F)cc4)cc3)nc2n(CCC)c1=O`
7.74

Report value: pKi, system: Adenosine receptor A1 (Homo sapiens, UniProt P30542), molecule: `Cn1c(=O)c2[nH]c(-c3ccc(OCC(=O)Nc4ccc(Br)cc4)cc3)cc2n(C)c1=O`
7.74

Report value: pKi, system: Adenosine receptor A1 (Homo sapiens, UniProt P30542), molecule: `Cn1c(=O)c2[nH]c(-c3ccc(OCC(=O)Nc4ccc(F)cc4)cc3)cc2n(C)c1=O`
7.83

Report value: pKi, system: Adenosine receptor A1 (Homo sapiens, UniProt P30542), molecule: `COc1cc(OCC(=O)Nc2ccc(Br)cc2)ccc1-c1cc2c([nH]1)c(=O)n(C)c(=O)n2C`
7.49

Report value: pKi, system: Adenosine receptor A1 (Homo sapiens, UniProt P30542), molecule: `CCCn1c(=O)c2[nH]c(-c3ccc(OCC(=O)Nc4ccc(-c5ccccc5)cc4)cc3)cc2n(C)c1=O`
7.96

Report value: pKi, system: Adenosine receptor A1 (Homo sapiens, UniProt P30542), molecule: `Cn1c(=O)c2[nH]c(-c3ccc(OCC(=O)Nc4ccccc4)cc3)cc2n(C)c1=O`
6.62

###

target: Adenosine receptor A2a (Homo sapiens); assay: Displacement of [3H]ZM-241385 from recombinant human adenosine A2A receptor expressed in HeLa cells at 0.1 uM
Sequence (P29274 whole entry): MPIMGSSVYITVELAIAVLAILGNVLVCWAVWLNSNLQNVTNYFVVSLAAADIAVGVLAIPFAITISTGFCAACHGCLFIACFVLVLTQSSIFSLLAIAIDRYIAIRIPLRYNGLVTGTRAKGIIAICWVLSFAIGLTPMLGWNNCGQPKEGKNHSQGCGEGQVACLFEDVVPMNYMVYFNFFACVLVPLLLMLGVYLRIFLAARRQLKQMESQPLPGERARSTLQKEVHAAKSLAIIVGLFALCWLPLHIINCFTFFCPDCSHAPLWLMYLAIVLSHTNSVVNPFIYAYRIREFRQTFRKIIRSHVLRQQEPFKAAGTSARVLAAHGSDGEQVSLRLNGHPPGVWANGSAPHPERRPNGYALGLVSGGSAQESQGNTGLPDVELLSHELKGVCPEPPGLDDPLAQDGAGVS
READOUT LABEL: inhibition (%)
Dear colleague, please return just the value in %, with no unit written.

Supply reported inhibition belonging to this compound: `COc1cc(OCC(=O)Nc2ccc(Br)cc2)ccc1-c1cc2c([nH]1)c(=O)n(C)c(=O)n2C`
20

Supply reported inhibition belonging to this compound: `CCn1c(=O)c2[nH]c(-c3ccc(OCC(=O)Nc4ccc(C#N)cc4)cc3)cc2n(CC)c1=O`
2

Supply reported inhibition belonging to this compound: `CCCn1c(=O)c2[nH]c(-c3ccc(OCC(=O)Nc4ccc(C(=O)c5ccccc5)cc4)cc3)cc2n(CCC)c1=O`
13

Supply reported inhibition belonging to this compound: `CCCn1c(=O)c2[nH]c(-c3ccc(OCC(=O)Nc4ccc(OC)nc4)cc3)cc2n(C)c1=O`
30

Supply reported inhibition belonging to this compound: `CCCn1c(=O)c2[nH]c(-c3ccc(OCC(=O)O)cc3)cc2n(C)c1=O`
21

Supply reported inhibition belonging to this compound: `CCCn1c(=O)c2[nH]c(-c3ccc(OCC(=O)Nc4ccc(F)cc4)cc3)cc2n(C)c1=O`
47

Supply reported inhibition belonging to this compound: `CCCn1c(=O)c2[nH]c(-c3ccc(OCC(=O)c4c(NC(=O)O)n(C)c(=O)n(C)c4=O)cc3)cc2n(CCC)c1=O`
61

Supply reported inhibition belonging to this compound: `COc1cc(OCC(=O)Nc2ccccc2)ccc1-c1cc2c([nH]1)c(=O)n(C)c(=O)n2C`
13

Supply reported inhibition belonging to this compound: `COc1cc(-c2cc3c([nH]2)c(=O)n(C)c(=O)n3C)ccc1OCC(=O)O`
5

Supply reported inhibition belonging to this compound: CCCn1c(=O)c2[nH]c(-c3ccc(OC(C)C(=O)O)cc3)cc2n(CCC)c1=O (configuration not stated)
8

Supply reported inhibition belonging to this compound: CCCn1c(=O)c2[nH]c(-c3ccc(OC(C)C(=O)NCc4ccc(Cl)cc4)cc3)cc2n(CCC)c1=O (configuration not stated)
57

Supply reported inhibition belonging to this compound: `CN(C(=O)COc1ccc(-c2cc3c([nH]2)c(=O)n(C)c(=O)n3C)cc1)c1ccccc1`
0

Supply reported inhibition belonging to this compound: `CCCn1c(=O)c2[nH]c(-c3ccc(OCC(=O)Nc4ccc(C(C)(C)C)cc4)cc3)cc2n(CCC)c1=O`
47

Supply reported inhibition belonging to this compound: `CCCn1c(=O)c2[nH]c(-c3ccc(OCC(=O)Nc4ccc(NC(C)=O)cc4)cc3)cc2n(CCC)c1=O`
40

Supply reported inhibition belonging to this compound: CCCn1c(=O)c2[nH]c(-c3ccc(OC(C)C(=O)Nc4ccc(OC)cc4)cc3)cc2n(CCC)c1=O (configuration not stated)
57

Supply reported inhibition belonging to this compound: `CCCn1c(=O)c2[nH]c(-c3ccc(OCC(=O)Nc4ccc(Br)cc4)cc3)c(Cl)c2n(CCC)c1=O`
37

Supply reported inhibition belonging to this compound: `CCCn1c(=O)c2[nH]c(-c3ccc(OCC(=O)Nc4ccc([N+](C)(C)C)cc4)cc3)cc2n(CCC)c1=O`
8
